- Tested on: A549
- procedure summary: relative viability (nuclei count vs DMSO), 5 days (fraction); higher = more cells survive
- measurement parameters: first compound 0.1 µM
measurement label: relative viability
Field format: numeric only.

I'm curious: which relative viability was measured for O=c1cc(N2CCOCC2)oc2c(-c3cccc4c3sc3ccccc34)cccc12 + C[C@]1(O)C[C@@H](c2nc(-c3ccc4ccc(-c5ccccc5)nc4c3)c3c(N)nccn32)C1 [Linsitinib] (partner 1 µM) tested on A549?
0.577

Here is the next molecule: CCN(CC)CCCCNc1ncc2cc(-c3cc(OC)cc(OC)c3)c(NC(=O)NC(C)(C)C)nc2n1 + COc1cc2c(Oc3ccc(NC(=O)C4(C(=O)Nc5ccc(F)cc5)CC4)cc3F)ccnc2cc1OCCCN1CCOCC1 [Foretinib] (partner 0.25 µM)
1.1

Here is the next molecule: CCN(CC)CCCCNc1ncc2cc(-c3cc(OC)cc(OC)c3)c(NC(=O)NC(C)(C)C)nc2n1 + C[C@@H](Oc1cc(-c2cnn(C3CCNCC3)c2)cnc1N)c1c(Cl)ccc(F)c1Cl [Crizotinib] (partner 1 µM)
0.961

Here is the next molecule: CCN(CC)CCCCNc1ncc2cc(-c3cc(OC)cc(OC)c3)c(NC(=O)NC(C)(C)C)nc2n1 + C[C@]1(O)C[C@@H](c2nc(-c3ccc4ccc(-c5ccccc5)nc4c3)c3c(N)nccn32)C1 [Linsitinib] (partner 1 µM)
0.563

Here is the next molecule: CCN(CC)CCCCNc1ncc2cc(-c3cc(OC)cc(OC)c3)c(NC(=O)NC(C)(C)C)nc2n1 + Cc1nc(NC(=O)N2CCC[C@H]2C(N)=O)sc1-c1ccnc(C(C)(C)C(F)(F)F)c1 [Alpelisib] (partner 2 µM)
0.985

Here is the next molecule: CCN(CC)CCCCNc1ncc2cc(-c3cc(OC)cc(OC)c3)c(NC(=O)NC(C)(C)C)nc2n1 + CC1(C)CCC(c2ccc(Cl)cc2)=C(CN2CCN(c3ccc(C(=O)NS(=O)(=O)c4ccc(N[C@H](CCN5CCOCC5)CSc5ccccc5)c(S(=O)(=O)C(F)(F)F)c4)cc3)CC2)C1 [Navitoclax] (partner 0.5 µM)
1.53

Here is the next molecule: O=c1cc(N2CCOCC2)oc2c(-c3cccc4c3sc3ccccc34)cccc12 + COc1cc2c(Oc3ccc(NC(=O)C4(C(=O)Nc5ccc(F)cc5)CC4)cc3F)ccnc2cc1OCCCN1CCOCC1 [Foretinib] (partner 0.25 µM)
0.99

Here is the next molecule: CCN(CC)CCCCNc1ncc2cc(-c3cc(OC)cc(OC)c3)c(NC(=O)NC(C)(C)C)nc2n1 + O=C(c1cc(Cc2n[nH]c(=O)c3ccccc23)ccc1F)N1CCN(C(=O)C2CC2)CC1 [Olaparib] (partner 8 µM)
0.318

* * *

- Tested on: HCC-44
- procedure summary: relative viability (nuclei count vs DMSO), 5 days (fraction); higher = more cells survive
- measurement parameters: first compound 0.3162 µM
Exercise: state measured relative viability for each of the compounds provided.
Field format: numeric only.

I'm curious: which relative viability was measured for CCN(CC)CCCCNc1ncc2cc(-c3cc(OC)cc(OC)c3)c(NC(=O)NC(C)(C)C)nc2n1 + NC(=O)Nc1cc(-c2cccc(F)c2)sc1C(=O)N[C@H]1CCCNC1 [AZD7762] (partner 0.2 µM) tested on HCC-44?
1.02

Here is the next compound: O=c1cc(N2CCOCC2)oc2c(-c3cccc4c3sc3ccccc34)cccc12 + CC1(C)CCC(c2ccc(Cl)cc2)=C(CN2CCN(c3ccc(C(=O)NS(=O)(=O)c4ccc(N[C@H](CCN5CCOCC5)CSc5ccccc5)c(S(=O)(=O)C(F)(F)F)c4)cc3)CC2)C1 [Navitoclax] (partner 0.5 µM)
0.887

Here is the next compound: O=c1cc(N2CCOCC2)oc2c(-c3cccc4c3sc3ccccc34)cccc12 + COc1cccc2cc(-c3nc([C@H]4CC[C@H](C(=O)O)CC4)n4ncnc(N)c34)[nH]c12 [OSI-027] (partner 0.5 µM)
0.694

* * *

- Tested on: RERF-LC-KJ
- procedure summary: relative viability (nuclei count vs DMSO), 5 days (fraction); higher = more cells survive
- measurement parameters: first compound 8 µM
Exercise: state measured relative viability for each of the molecules provided.
Field format: numeric only.

# get_value(readout='relative viability', item= O=c1cc(-c2cccc3c2Sc2ccccc2S3)oc(N2CCOCC2)c1 + Cc1nc(NC(=O)N2CCC[C@H]2C(N)=O)sc1-c1ccnc(C(C)(C)C(F)(F)F)c1 [Alpelisib] (partner 2 µM) )
0.939

Here is the next molecule: O=c1cc(-c2cccc3c2Sc2ccccc2S3)oc(N2CCOCC2)c1 + Cc1cc(Nc2cc(N3CCN(C)CC3)nc(Sc3ccc(NC(=O)C4CC4)cc3)n2)n[nH]1 [Tozasertib] (partner 0.1 µM)
0.389

Here is the next molecule: O=c1cc(-c2cccc3c2Sc2ccccc2S3)oc(N2CCOCC2)c1 + CC(C)C[C@H](NC(=O)[C@H](Cc1ccccc1)NC(=O)c1cnccn1)B(O)O [Bortezomib] (partner 0.002 µM)
1.02

Here is the next molecule: O=c1cc(-c2cccc3c2Sc2ccccc2S3)oc(N2CCOCC2)c1 + NC(=O)Nc1cc(-c2cccc(F)c2)sc1C(=O)N[C@H]1CCCNC1 [AZD7762] (partner 0.2 µM)
1.02

Here is the next molecule: O=c1cc(-c2cccc3c2Sc2ccccc2S3)oc(N2CCOCC2)c1 + Nc1nc2[nH]cc(CCc3ccc(C(=O)N[C@@H](CCC(=O)O)C(=O)O)cc3)c2c(=O)[nH]1 [Pemetrexed] (partner 0.2 µM)
0.469

Here is the next molecule: O=c1cc(-c2cccc3c2Sc2ccccc2S3)oc(N2CCOCC2)c1 + Cc1nc(Nc2ncc(C(=O)Nc3c(C)cccc3Cl)s2)cc(N2CCN(CCO)CC2)n1 [Dasatinib] (partner 0.075 µM)
0.74

Here is the next molecule: O=c1cc(-c2cccc3c2Sc2ccccc2S3)oc(N2CCOCC2)c1 + CC(=O)Nc1cccc(-n2c(=O)n(C3CC3)c(=O)c3c(Nc4ccc(I)cc4F)n(C)c(=O)c(C)c32)c1 [Trametinib] (partner 0.02 µM)
0.784

* * *

- Tested on: NCI-H520
- procedure summary: relative viability (nuclei count vs DMSO), 5 days (fraction); higher = more cells survive
- measurement parameters: first compound 0.1 µM
For each record, check the reported relative viability: if it is below 0.6 write class 1, else write class 0.

In the record for CCN(CC)CCCCNc1ncc2cc(-c3cc(OC)cc(OC)c3)c(NC(=O)NC(C)(C)C)nc2n1 + N=C(N)NC(=N)NCCc1ccccc1 [Phenformin] (partner 250 µM) , is relative viability less than 0.6?
class 0

Here is the next compound: O=c1cc(N2CCOCC2)oc2c(-c3cccc4c3sc3ccccc34)cccc12 + N=C(N)NC(=N)NCCc1ccccc1 [Phenformin] (partner 250 µM)
class 1

Here is the next compound: O=c1cc(N2CCOCC2)oc2c(-c3cccc4c3sc3ccccc34)cccc12 + C[C@]1(O)C[C@@H](c2nc(-c3ccc4ccc(-c5ccccc5)nc4c3)c3c(N)nccn32)C1 [Linsitinib] (partner 1 µM)
class 0

Here is the next compound: O=c1cc(N2CCOCC2)oc2c(-c3cccc4c3sc3ccccc34)cccc12 + O=C(CCCCCCC(=O)Nc1ccccc1)NO [Vorinostat] (partner 1 µM)
class 0

Here is the next compound: O=c1cc(N2CCOCC2)oc2c(-c3cccc4c3sc3ccccc34)cccc12 + COc1cc2c(Oc3ccc(NC(=O)C4(C(=O)Nc5ccc(F)cc5)CC4)cc3F)ccnc2cc1OCCCN1CCOCC1 [Foretinib] (partner 0.25 µM)
class 0

Here is the next compound: CCN(CC)CCCCNc1ncc2cc(-c3cc(OC)cc(OC)c3)c(NC(=O)NC(C)(C)C)nc2n1 + Cc1nc(NC(=O)N2CCC[C@H]2C(N)=O)sc1-c1ccnc(C(C)(C)C(F)(F)F)c1 [Alpelisib] (partner 2 µM)
class 0

Here is the next compound: CCN(CC)CCCCNc1ncc2cc(-c3cc(OC)cc(OC)c3)c(NC(=O)NC(C)(C)C)nc2n1 + Cc1nc(Nc2ncc(C(=O)Nc3c(C)cccc3Cl)s2)cc(N2CCN(CCO)CC2)n1 [Dasatinib] (partner 0.075 µM)
class 1

* * *

- System: SK-LU-1
- procedure summary: relative viability (nuclei count vs DMSO), 5 days (fraction); higher = more cells survive
- measurement parameters: first compound 0.8 µM
measurement label: relative viability
Field format: numeric only.

# get_value(readout='relative viability', item= COc1nc(C)cnc1NS(=O)(=O)c1cccnc1-c1ccc(-c2nnco2)cc1 [Zibotentan] + CC(=O)Nc1cccc(-n2c(=O)n(C3CC3)c(=O)c3c(Nc4ccc(I)cc4F)n(C)c(=O)c(C)c32)c1 [Trametinib] (partner 0.02 µM) )
0.451

Here is the next compound: COc1nc(C)cnc1NS(=O)(=O)c1cccnc1-c1ccc(-c2nnco2)cc1 [Zibotentan] + O=C(c1cc(Cc2n[nH]c(=O)c3ccccc23)ccc1F)N1CCN(C(=O)C2CC2)CC1 [Olaparib] (partner 8 µM)
0.579

Here is the next compound: COc1nc(C)cnc1NS(=O)(=O)c1cccnc1-c1ccc(-c2nnco2)cc1 [Zibotentan] + CC1(C)CCC(c2ccc(Cl)cc2)=C(CN2CCN(c3ccc(C(=O)NS(=O)(=O)c4ccc(N[C@H](CCN5CCOCC5)CSc5ccccc5)c(S(=O)(=O)C(F)(F)F)c4)cc3)CC2)C1 [Navitoclax] (partner 0.5 µM)
1.04

Here is the next compound: O=c1cc(-c2cccc3c2Sc2ccccc2S3)oc(N2CCOCC2)c1 + CCNC(=O)c1noc(-c2cc(C(C)C)c(O)cc2O)c1-c1ccc(CN2CCOCC2)cc1 [Luminespib] (partner 0.01 µM)
0.209

Values were extracted from the supplement of paper PMC10307832.
